The reported measurements were obtained from patent US8796268B2.

# tgt: Human PI3K beta (Homo sapiens, UniProt P42338)
# Construct: His (N); host or cells: SF9 insect cells (baculovirus)
# Sequence (P42338 whole entry): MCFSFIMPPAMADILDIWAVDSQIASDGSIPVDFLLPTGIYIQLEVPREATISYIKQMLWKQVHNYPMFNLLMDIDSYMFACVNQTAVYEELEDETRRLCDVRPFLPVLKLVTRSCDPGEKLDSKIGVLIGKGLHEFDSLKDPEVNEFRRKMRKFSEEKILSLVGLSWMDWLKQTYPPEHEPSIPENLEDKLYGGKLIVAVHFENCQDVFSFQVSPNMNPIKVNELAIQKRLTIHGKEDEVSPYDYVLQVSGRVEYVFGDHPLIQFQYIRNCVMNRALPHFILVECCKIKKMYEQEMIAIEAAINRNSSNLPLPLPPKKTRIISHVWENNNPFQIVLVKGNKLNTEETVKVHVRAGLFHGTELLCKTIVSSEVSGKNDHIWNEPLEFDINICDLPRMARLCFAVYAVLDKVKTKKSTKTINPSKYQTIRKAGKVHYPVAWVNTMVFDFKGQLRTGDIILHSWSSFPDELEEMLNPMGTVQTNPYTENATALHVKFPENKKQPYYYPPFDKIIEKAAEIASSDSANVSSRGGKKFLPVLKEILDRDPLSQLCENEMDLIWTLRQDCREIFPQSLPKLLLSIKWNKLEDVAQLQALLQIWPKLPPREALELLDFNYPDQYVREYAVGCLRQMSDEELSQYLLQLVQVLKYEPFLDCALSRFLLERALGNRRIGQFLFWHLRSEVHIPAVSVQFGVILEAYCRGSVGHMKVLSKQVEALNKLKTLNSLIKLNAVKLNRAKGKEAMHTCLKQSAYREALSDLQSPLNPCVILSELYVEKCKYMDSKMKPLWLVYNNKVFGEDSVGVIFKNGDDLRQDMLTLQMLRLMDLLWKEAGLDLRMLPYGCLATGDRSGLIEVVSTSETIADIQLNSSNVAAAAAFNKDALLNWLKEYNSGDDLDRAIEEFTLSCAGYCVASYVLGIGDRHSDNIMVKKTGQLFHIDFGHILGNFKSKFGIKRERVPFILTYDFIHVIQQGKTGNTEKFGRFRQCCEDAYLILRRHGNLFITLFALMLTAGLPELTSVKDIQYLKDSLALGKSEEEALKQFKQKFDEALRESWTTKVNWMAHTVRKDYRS
# Sequence (P27986 whole entry partner): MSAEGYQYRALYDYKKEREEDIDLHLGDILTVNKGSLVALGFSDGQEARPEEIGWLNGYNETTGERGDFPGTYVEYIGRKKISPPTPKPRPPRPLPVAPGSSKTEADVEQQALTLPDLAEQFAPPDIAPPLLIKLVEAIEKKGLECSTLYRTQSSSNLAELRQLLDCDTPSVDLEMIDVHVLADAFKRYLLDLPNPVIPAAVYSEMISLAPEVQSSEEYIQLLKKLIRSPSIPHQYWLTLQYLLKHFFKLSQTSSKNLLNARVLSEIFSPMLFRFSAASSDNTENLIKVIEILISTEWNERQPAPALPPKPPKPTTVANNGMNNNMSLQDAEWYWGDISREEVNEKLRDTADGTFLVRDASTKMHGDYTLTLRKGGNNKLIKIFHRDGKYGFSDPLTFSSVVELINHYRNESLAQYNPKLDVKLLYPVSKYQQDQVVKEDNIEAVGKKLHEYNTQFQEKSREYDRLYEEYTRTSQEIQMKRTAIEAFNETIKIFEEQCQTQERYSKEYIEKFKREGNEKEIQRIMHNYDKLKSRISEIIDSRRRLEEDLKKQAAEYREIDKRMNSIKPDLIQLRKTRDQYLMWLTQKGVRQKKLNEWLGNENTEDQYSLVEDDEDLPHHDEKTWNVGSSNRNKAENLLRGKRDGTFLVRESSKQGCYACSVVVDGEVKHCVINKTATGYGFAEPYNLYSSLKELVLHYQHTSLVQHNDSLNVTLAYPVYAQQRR
# experimentalDetails: Human PI3K beta enzyme assay (HTRF)
# Assay type: biochemical
# conditionSet: at a 1.1 μM concentration; read-out: PI3β Percent Inhibition
Structures can show the parent of a compound that is named as a salt.
quantity: inhibition at 1.1 µM (%)
Form entry: value (%) — number only.

# inhibition at 1.1 µM of `N#Cc1c(N2CCOCC2)sc(C(=O)O)c1Cc1ccc(Cl)c(F)c1` = 97

# inhibition at 1.1 µM of `O=C(O)c1sc(N2CCOCC2)nc1Cc1ccc(Cl)cc1` = 105

# inhibition at 1.1 µM of `O=C(O)c1sc(N2CCOCC2)nc1Cc1ccc(Cl)c(Cl)c1` = 106

# inhibition at 1.1 µM of `O=C(O)c1sc(N2CCOCC2)nc1Cc1ccc2cc(F)ccc2c1` = 106

# inhibition at 1.1 µM of `O=C(O)c1sc(N2CCOCC2)nc1Cc1ccc(Cl)cc1Cl` = 109

# inhibition at 1.1 µM of `COc1cc(Cc2c(C(=O)O)sc(N3CCOCC3)c2C#N)c(F)cc1Cl` = 110

# inhibition at 1.1 µM of N#Cc1c(N2CCOCC2)sc(C(=O)O)c1C(N)c1ccc(Cl)cc1 (stereo not drawn) [Compound 113, hydrochloride] = 100

# inhibition at 1.1 µM of `O=C(O)c1sc(N2CCOCC2)nc1Cc1ccc2ccccc2c1` = 111

# inhibition at 1.1 µM of `O=C(O)c1sc(N2CCOCC2)nc1Cc1ccc(OC(F)(F)F)cc1` = 76

* * *

# tgt: Human PI3K alpha (Homo sapiens, UniProt P42336)
# Construct: His (N); host or cells: SF9 insect cells (baculovirus)
# Sequence (P42336 whole entry): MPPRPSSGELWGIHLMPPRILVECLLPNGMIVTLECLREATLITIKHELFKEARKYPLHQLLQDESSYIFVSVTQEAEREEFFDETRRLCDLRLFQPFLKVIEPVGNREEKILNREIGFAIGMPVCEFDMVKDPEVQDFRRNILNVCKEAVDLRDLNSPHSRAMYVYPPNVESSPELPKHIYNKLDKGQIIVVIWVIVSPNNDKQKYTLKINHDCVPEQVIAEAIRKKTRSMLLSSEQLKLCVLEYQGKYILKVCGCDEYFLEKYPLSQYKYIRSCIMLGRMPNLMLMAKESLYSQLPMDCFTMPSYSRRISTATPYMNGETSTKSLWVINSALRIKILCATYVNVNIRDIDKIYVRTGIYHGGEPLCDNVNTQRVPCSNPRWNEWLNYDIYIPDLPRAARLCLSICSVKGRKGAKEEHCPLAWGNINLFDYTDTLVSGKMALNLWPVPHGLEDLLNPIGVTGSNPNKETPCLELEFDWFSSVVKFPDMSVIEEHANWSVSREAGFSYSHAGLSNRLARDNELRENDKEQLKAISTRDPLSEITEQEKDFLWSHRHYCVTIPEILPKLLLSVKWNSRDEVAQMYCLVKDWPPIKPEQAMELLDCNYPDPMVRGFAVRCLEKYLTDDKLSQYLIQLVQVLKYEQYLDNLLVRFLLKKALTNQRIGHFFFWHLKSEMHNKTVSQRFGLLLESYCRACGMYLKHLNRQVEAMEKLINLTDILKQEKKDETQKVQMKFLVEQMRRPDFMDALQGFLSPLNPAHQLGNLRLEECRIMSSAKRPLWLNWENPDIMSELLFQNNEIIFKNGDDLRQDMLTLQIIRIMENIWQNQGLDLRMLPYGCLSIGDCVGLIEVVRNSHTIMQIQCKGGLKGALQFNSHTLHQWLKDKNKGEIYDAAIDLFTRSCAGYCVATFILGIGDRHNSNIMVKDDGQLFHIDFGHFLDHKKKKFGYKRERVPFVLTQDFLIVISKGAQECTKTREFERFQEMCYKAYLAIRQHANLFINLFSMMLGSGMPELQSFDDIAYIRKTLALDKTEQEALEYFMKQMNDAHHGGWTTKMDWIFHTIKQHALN
# Sequence (P27986 whole entry partner): as the sequence (P27986 whole entry partner) above
# experimentalDetails: Human PI3K alpha enzyme assay (HTRF)
# Format: biochemical
# conditionSet: concentration not given; b1387 states 1.1 μM for PI3K α and β; read-out: p110 alpha Percent Inhibition
# Procedure: The catalytic subunits of PI3Ks are cloned into either pDEST8(p110 alpha) or pDEST10(p110beta, p110delta, and p110gamma) as N-terminal His tagged fusion proteins using the Gateway system (Invitrogen, catalog#11804-010 for pDEST8 and 11806-015 for pDEST10). […] For the assay methods described above, test compound percent inhibition, at various concentrations, is calculated relative to control (DMSO and EDTA) treated samples. […]
Class boundaries, taken from values of inhibition at 1.1 µM, are as follows: low = under 20%, medium = from 20% up to 80%, high = 80% and over

Lab note: which band did c1ccc2cc(Cc3cc(N4CCOCC4)sc3-c3nnn[nH]3)ccc2c1 [Compound 356] land in?
low

Lab note: which band did OC(c1ccc(Cl)c(F)c1)c1cc(-c2ccncc2)sc1-c1nnc[nH]1 (stereo not drawn) [Compound 232] land in?
medium

Lab note: which band did O=C(O)c1sc(N2CCOCC2)nc1Cc1cc2ccccc2s1 [Compound 286] land in?
medium

Lab note: which band did COc1ccc2cc(Cc3c(C(=O)O)sc(N4CCOCC4)c3C#N)ccc2c1 [Compound 301] land in?
medium

Lab note: which band did OC(c1cc(-c2ccncc2)sc1-c1nnc[nH]1)c1c(F)cccc1Cl (stereo not drawn) [Compound 275] land in?
low

Lab note: which band did CC(=O)Nc1cc(-c2sc(-c3nnc[nH]3)c(C(O)c3ccc4ccccc4n3)c2C#N)ccn1 (stereo not drawn) [Compound 153] land in?
medium

Lab note: which band did CC(=O)Nc1cc(-c2cc(C(c3ccc(Cl)cc3)N3CC[C@@H](CO)C3)c(-c3nc[nH]n3)s2)ccn1 (stereo partly drawn) [Compound 223] land in?
medium

Lab note: which band did N#Cc1c(-c2ccnnc2)sc(-c2nnc[nH]2)c1C(c1ccc(Cl)cc1)N1CCNCC1 (stereo not drawn) [Compound 227] land in?
low

Lab note: which band did O=C(O)c1sc(N2CCOCC2)c(C#Cc2ccccc2)c1Cc1ccc(Cl)c(Cl)c1 [Compound 296] land in?
medium

Lab note: which band did CC(=O)Nc1cc(-c2cc(C(c3ccc(Cl)cc3)N3CC(N)C3)c(-c3nnc[nH]3)s2)ccn1 (stereo not drawn) [Compound 200] land in?
high

Lab note: which band did CC(=O)Nc1cc(-c2sc(-c3nnc[nH]3)c(C(O)c3ccc(Cl)cc3)c2C#N)ccn1 (stereo not drawn) [Compound 165] land in?
medium

Lab note: which band did OC(c1ccc(-c2cncnc2)cc1)c1cc(-c2ccncc2)sc1-c1nnc[nH]1 (stereo not drawn) [Compound 236] land in?
low

Lab note: which band did CC(=O)Nc1cc(-c2cc(C(c3ccc(Cl)cc3)n3ccnc3)c(-c3nnc[nH]3)s2)ccn1 (stereo not drawn) [Compound 167] land in?
high

Lab note: which band did CNC1CN(C(c2ccc(Cl)cc2)c2cc(-c3ccnc(NC(C)=O)c3)sc2-c2nnc[nH]2)C1 (stereo not drawn) [Compound 170] land in?
high

Lab note: which band did OC(c1cc(-c2ccncc2)sc1-c1nnc[nH]1)c1cccc2ccccc12 (stereo not drawn) [Compound 228] land in?
medium

Lab note: which band did Cc1nc2cc(Cc3nc(N4CCOCC4)sc3C(=O)O)ccc2s1 [Compound 289] land in?
low

* * *

# tgt: Human PI3K gamma (Homo sapiens, UniProt P48736)
# Construct: His (N); host or cells: SF9 insect cells (baculovirus)
# Sequence (P48736 whole entry): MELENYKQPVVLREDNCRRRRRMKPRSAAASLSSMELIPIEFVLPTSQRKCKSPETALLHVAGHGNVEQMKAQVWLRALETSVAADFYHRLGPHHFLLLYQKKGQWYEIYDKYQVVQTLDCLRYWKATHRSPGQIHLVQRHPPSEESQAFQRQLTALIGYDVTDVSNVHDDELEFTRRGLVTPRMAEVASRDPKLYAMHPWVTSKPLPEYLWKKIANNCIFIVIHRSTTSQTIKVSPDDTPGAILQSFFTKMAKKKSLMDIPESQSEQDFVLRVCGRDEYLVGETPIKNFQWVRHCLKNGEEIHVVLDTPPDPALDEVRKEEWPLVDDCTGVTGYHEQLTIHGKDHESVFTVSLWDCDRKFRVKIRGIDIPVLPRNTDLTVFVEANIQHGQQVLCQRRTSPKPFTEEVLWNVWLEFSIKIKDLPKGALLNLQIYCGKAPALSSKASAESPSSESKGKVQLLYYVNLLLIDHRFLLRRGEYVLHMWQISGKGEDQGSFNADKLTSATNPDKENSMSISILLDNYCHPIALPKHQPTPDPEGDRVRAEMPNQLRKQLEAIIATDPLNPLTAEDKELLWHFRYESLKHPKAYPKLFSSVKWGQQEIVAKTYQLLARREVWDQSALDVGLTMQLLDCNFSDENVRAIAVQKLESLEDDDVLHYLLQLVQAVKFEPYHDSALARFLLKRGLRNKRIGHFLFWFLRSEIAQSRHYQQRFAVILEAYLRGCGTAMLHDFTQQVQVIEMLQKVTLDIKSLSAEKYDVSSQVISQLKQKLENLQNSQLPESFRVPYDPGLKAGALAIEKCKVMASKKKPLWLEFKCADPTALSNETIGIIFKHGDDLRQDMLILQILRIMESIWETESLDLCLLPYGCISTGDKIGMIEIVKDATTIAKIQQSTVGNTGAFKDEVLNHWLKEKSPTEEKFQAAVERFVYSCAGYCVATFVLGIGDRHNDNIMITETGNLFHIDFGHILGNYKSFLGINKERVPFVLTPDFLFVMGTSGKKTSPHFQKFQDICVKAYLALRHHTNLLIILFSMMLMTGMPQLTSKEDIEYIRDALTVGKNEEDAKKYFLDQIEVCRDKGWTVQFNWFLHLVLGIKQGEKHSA
# experimentalDetails: Human PI3K gamma enzyme assay (HTRF)
# Assay type: biochemical
# conditionSet: concentration not given; b1389 states 1.0 μM for PI3K δ and γ; read-out: p110 gamma Percent Inhibition
I'd be grateful if you could share measured inhibition at 1 µM for these entries.
Form entry: value (%) — number only.

# inhibition at 1 µM of C=CCC(c1ccc(Cl)c(Cl)c1)c1c(C(=O)O)sc(N2CCOCC2)c1C#N (centres unmarked) [Compound 355] = 53

# inhibition at 1 µM of OC(c1ccc(F)cc1Cl)c1cc(-c2ccncc2)sc1-c1nnc[nH]1 (centres unmarked) [Compound 187] = 25

# inhibition at 1 µM of COc1cc(C(O)c2cc(-c3ccncc3)sc2-c2nnc[nH]2)c(F)cc1Cl (centres unmarked) [Compound 279] = 42

# inhibition at 1 µM of NS(=O)(=O)c1sc(N2CCOCC2)nc1Cc1ccc2ccccc2c1 [Compound 329] = 29

# inhibition at 1 µM of CS(=O)(=O)NC(c1ccc(Cl)cc1)c1c(C(=O)O)sc(N2CCOCC2)c1C#N (centres unmarked) [Compound 317] = 29

# inhibition at 1 µM of COC(=O)Nc1cc(-c2sc(-c3nnc[nH]3)c(Cc3ccc4ccccc4c3)c2C#N)ccn1 [Compound 179] = 5

# inhibition at 1 µM of OC(c1ccc2c(c1)OC(F)(F)O2)c1cc(-c2ccncc2)sc1-c1nnc[nH]1 (centres unmarked) [Compound 134] = 8

# inhibition at 1 µM of COc1ccc(C(O)c2cc(-c3ccncc3)sc2-c2nnc[nH]2)cn1 (centres unmarked) [Compound 272] = 10

# inhibition at 1 µM of Cc1ccc(C(O)c2cc(-c3ccncc3)sc2-c2nnc[nH]2)cc1C (centres unmarked) [Compound 174] = 8

# inhibition at 1 µM of CC(=O)Nc1cc(-c2sc(-c3nnc[nH]3)c(Sc3ccc(Cl)cc3)c2C#N)ccn1 [Compound 166] = 3

# inhibition at 1 µM of OC(c1ccc(F)c(F)c1)c1cc(-c2ccncc2)sc1-c1nnc[nH]1 (centres unmarked) [Compound 199] = 16

# inhibition at 1 µM of N#Cc1c(N2CCOCC2)sc(C(=O)O)c1Cc1cc2cc(F)ccc2[nH]1 [Compound 312] = 47

# inhibition at 1 µM of CC(=O)Nc1cc(-c2cc(C(c3ccc(Cl)cc3)N3CC(N)C3)c(-c3nnc[nH]3)s2)ccn1 (centres unmarked) [Compound 200] = 60

# inhibition at 1 µM of OC(c1ccc2ccccc2c1)c1cc(-c2ccncc2)sc1-c1nnc[nH]1 (centres unmarked) [Compound 280] = 34

# inhibition at 1 µM of COC(=O)Nc1cc(-c2sc(C(=O)O)c(Cc3ccc4ccccc4c3)c2C#N)ccn1 [Compound 180] = 21

# inhibition at 1 µM of CC(=O)Nc1cc(-c2nc(C(c3ccc(Cl)cc3)N3CCNCC3)c(-c3nnc[nH]3)s2)ccn1 (centres unmarked) [Compound 229] = 16

# inhibition at 1 µM of CC(=O)Nc1cc(-c2cc(C(N=[N+]=[N-])c3ccc(Cl)cc3)c(-c3nnc[nH]3)s2)ccn1 (centres unmarked) [Compound 211] = 13

* * *

# tgt: Human PI3K beta (Homo sapiens, UniProt P42338)
# Construct: His (N); host or cells: SF9 insect cells (baculovirus)
# experimentalDetails: Human PI3K beta enzyme assay (HTRF)
# Format: biochemical
# conditionSet: concentration not given; b1387 states 1.1 μM for PI3K α and β; read-out: p110 beta Percent Inhibition
# Method: The catalytic subunits of PI3Ks are cloned into either pDEST8(p110 alpha) or pDEST10(p110beta, p110delta, and p110gamma) as N-terminal His tagged fusion proteins using the Gateway system (Invitrogen, catalog#11804-010 for pDEST8 and 11806-015 for pDEST10). […] For the assay methods described above, test compound percent inhibition, at various concentrations, is calculated relative to control (DMSO and EDTA) treated samples. […]
Classify by measured inhibition at 1.1 µM: Y if it is equal to or exceeds 90%, N if it is smaller.

Given Cc1nc2cc(Cc3nc(N4CCOCC4)sc3C(=O)O)ccc2s1 [Compound 289] , state whether its inhibition at 1.1 µM is at least 90%.
N

Given CC(=O)Nc1cc(-c2cc(C(NCC(F)(F)F)c3ccc(Cl)cc3)c(-c3nnc[nH]3)s2)ccn1 (centres unmarked) [Compound 135] , state whether its inhibition at 1.1 µM is at least 90%.
N

Given OC(c1cc(-c2ccncc2)sc1-c1nnc[nH]1)c1c(F)cccc1Cl (centres unmarked) [Compound 275] , state whether its inhibition at 1.1 µM is at least 90%.
N

Given Clc1ccc(Cc2nc(N3CCOCC3)sc2Cc2nnn[nH]2)cc1Cl [Compound 350] , state whether its inhibition at 1.1 µM is at least 90%.
N

Given CCN(CC)C(c1ccc(Cl)cc1)c1cc(-c2ccnc(Cl)c2)sc1-c1nnc[nH]1 (centres unmarked) [Compound 243] , state whether its inhibition at 1.1 µM is at least 90%.
N

Given OC(c1cc2ccccc2cc1F)c1cc(-c2ccncc2)sc1-c1nnc[nH]1 (centres unmarked) [Compound 136] , state whether its inhibition at 1.1 µM is at least 90%.
Y

Given OC(c1cccc(-c2ccncc2)c1)c1cc(-c2ccncc2)sc1-c1nnc[nH]1 (centres unmarked) [Compound 258] , state whether its inhibition at 1.1 µM is at least 90%.
N

Given CC(=O)Nc1cc(-c2cc(C(c3ccc(Cl)cc3)N3CCN(C)CC3)c(-c3nnc[nH]3)s2)ccn1 (centres unmarked) [Compound 267] , state whether its inhibition at 1.1 µM is at least 90%.
Y
